These measurements were taken from paper PMC12607897.

biological target: mLysRS:IN interaction (human mLysRS, HIV-1 IN) (UniProt P12497+Q15046); construct: made in house; test: HTRF assay of mLysRS:IN interaction; format: binding, human / HIV-1; settings: HTRF; mLysRS 1.5 nM dimer, IN 25 nM dimer; read-out: half-maximal inhibitory concentration (IC50) in the mLysRS:IN assay
Sequence (Q15046 other isoform, or with tags, fused parts or gaps, other chains not shown): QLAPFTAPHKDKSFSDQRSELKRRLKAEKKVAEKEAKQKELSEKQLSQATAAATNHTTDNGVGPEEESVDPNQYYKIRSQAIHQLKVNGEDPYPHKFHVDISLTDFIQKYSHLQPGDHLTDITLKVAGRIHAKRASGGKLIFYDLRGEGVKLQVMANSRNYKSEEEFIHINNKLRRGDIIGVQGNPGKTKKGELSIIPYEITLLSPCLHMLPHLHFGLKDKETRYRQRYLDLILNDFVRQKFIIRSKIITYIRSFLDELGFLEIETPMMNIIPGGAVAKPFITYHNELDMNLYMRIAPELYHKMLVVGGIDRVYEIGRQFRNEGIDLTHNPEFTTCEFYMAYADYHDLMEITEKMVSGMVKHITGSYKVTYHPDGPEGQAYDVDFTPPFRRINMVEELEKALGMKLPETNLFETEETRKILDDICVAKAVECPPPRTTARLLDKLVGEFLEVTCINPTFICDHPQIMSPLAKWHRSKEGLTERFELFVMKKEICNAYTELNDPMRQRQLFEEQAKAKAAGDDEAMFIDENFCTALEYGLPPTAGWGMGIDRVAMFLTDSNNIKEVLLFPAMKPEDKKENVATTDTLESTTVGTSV
property-measured: IC50 (µM)
Write down the numeric answer in µM and omit the unit.

# annotated cases, reported IC50 shown
- compound: "COCCOC(=O)C1=C(C)NC(C)=C(C(=O)OC/C=C/c2ccccc2)C1c1cccc([N+](=O)[O-])c1 (stereo not shown)"
  IC50, µM: 310
- compound: "CCOC(=O)C1=C(C)NC(C)=C(C(=O)OCC)C1c1ccccc1/C=C/C(=O)OC(C)(C)C"
  IC50, µM: 64

Turning now to a further compound:
For the compound CN1CCCC(n2nc(Cc3ccc(Cl)cc3)c3ccccc3c2=O)CC1 (stereo not shown) , what IC50 is on record? 340
